# assayed.target: T1, RBFOX1 RRM (Homo sapiens, UniProt Q9NWB1 109-208)
# T1 sequence: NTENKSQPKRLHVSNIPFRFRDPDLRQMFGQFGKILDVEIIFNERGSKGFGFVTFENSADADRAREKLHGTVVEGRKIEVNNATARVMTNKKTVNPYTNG
# protocol.text: EMSA; HiTS-Eq, 1 nM pool, 10 min; buffer printed only for the single-RNA assays: 10 mM Tris pH 7.5, 150 mM NaCl, 3.4 mM EDTA, 0.001% NP-40, 30 C
# particulars: tags: His6 N-terminal (pET28a); label: 5' 32P
The full ranking holds about 16,000 sequences; the median of “ka relative to ugcaugu” is about 0.0091, and the highest 2% start at about 0.032. The list comes from a sample in which the highest values are over-represented; it also holds close analogues and randomly drawn sequences.
Item-by-item account of binding signal

binder	binding signal
UGGUGUG (DNA:RNA) RNA: GGGAGACCGGAAUUCAGAUUGUCCUGGUGUGUUAAAUCCCGUCGUAGCCACCA DNA 1: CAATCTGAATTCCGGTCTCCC DNA 2: TGGTGGCTACGACGGGATT	0.029 KA relative to UGCAUGU
AGCCGAC (DNA:RNA) RNA: GGGAGACCGGAAUUCAGAUUGUCCAGCCGACUUAAAUCCCGUCGUAGCCACCA DNA 1: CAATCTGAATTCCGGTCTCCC DNA 2: TGGTGGCTACGACGGGATT	0.00754 KA relative to UGCAUGU
UGAGGAG (DNA:RNA) RNA: GGGAGACCGGAAUUCAGAUUGUCCUGAGGAGUUAAAUCCCGUCGUAGCCACCA DNA 1: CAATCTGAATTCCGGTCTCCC DNA 2: TGGTGGCTACGACGGGATT	0.0109 KA relative to UGCAUGU
GAGCAGA (DNA:RNA) RNA: GGGAGACCGGAAUUCAGAUUGUCCGAGCAGAUUAAAUCCCGUCGUAGCCACCA DNA 1: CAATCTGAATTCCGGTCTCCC DNA 2: TGGTGGCTACGACGGGATT	0.0147 KA relative to UGCAUGU
GCUGUUG (DNA:RNA) RNA: GGGAGACCGGAAUUCAGAUUGUCCGCUGUUGUUAAAUCCCGUCGUAGCCACCA DNA 1: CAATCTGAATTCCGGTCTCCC DNA 2: TGGTGGCTACGACGGGATT	0.028 KA relative to UGCAUGU
GCUGCUG (DNA:RNA) RNA: GGGAGACCGGAAUUCAGAUUGUCCGCUGCUGUUAAAUCCCGUCGUAGCCACCA DNA 1: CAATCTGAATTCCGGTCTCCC DNA 2: TGGTGGCTACGACGGGATT	0.0323 KA relative to UGCAUGU
AAAACGU (DNA:RNA) RNA: GGGAGACCGGAAUUCAGAUUGUCCAAAACGUUUAAAUCCCGUCGUAGCCACCA DNA 1: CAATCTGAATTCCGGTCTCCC DNA 2: TGGTGGCTACGACGGGATT	0.000755 KA relative to UGCAUGU
UGUGUGG (DNA:RNA) RNA: GGGAGACCGGAAUUCAGAUUGUCCUGUGUGGUUAAAUCCCGUCGUAGCCACCA DNA 1: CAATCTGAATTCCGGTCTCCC DNA 2: TGGTGGCTACGACGGGATT	0.0178 KA relative to UGCAUGU
UGUGGUG (DNA:RNA) RNA: GGGAGACCGGAAUUCAGAUUGUCCUGUGGUGUUAAAUCCCGUCGUAGCCACCA DNA 1: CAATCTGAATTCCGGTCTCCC DNA 2: TGGTGGCTACGACGGGATT	0.0376 KA relative to UGCAUGU
